tested on: OVCAR-8 cells; assay: Drug-siRNA combination screen: 346-compound anticancer library at 100 nM, CCK-8 viability; conditions: OVCAR-8; drug 100 nM; panel of 18 siRNA knockdowns
ENDPOINT_NAME: synergy / antagonism of drug with gene knockdowns, in words

- CN(C)Cc1c(C(=O)NCCOc2ccc(C(=O)NO)cc2)oc2ccccc12 [PCI-24781]: mostly synergistic
- CCCCc1nc2cc(/C=C/C(=O)NO)ccc2n1CCN(CC)CC [Pracinostat]: mostly synergistic

---

system: OVCAR-8 cells; assay: Drug-siRNA combination screen: 346-compound anticancer library at 100 nM, CCK-8 viability; settings: OVCAR-8; drug 100 nM; panel of 18 siRNA knockdowns
ENDPOINT_NAME: synergy / antagonism of drug with gene knockdowns, in words

* CC(C)[C@H](C(=O)Nc1ccc(C(=O)NO)cc1)c1ccccc1 | mostly synergistic
* CC(=O)NCC(=O)N1[C@@H]2CC[C@H]1c1ccc(Nc3ncc(C(F)(F)F)c(NC4CCC4)n3)cc12 | significant synergy
* Cc1cc(Nc2cc(N3CCN(C)CC3)nc(/C=C/c3ccccc3)n2)n[nH]1 | significant synergy
* C#Cc1cccc(Nc2ncnc3cc(OC)c(OCCCCCCC(=O)NO)cc23)c1 | mostly synergistic
* O=C(/C=C/c1cccc(S(=O)(=O)Nc2ccccc2)c1)NO | mostly synergistic

Task item: Identify measured synergy / antagonism of drug with gene knockdowns, in words corresponding to CC(/C=C/C(=O)NO)=C\[C@@H](C)C(=O)c1ccc(N(C)C)cc1
Reply: mostly synergistic

---

tested on: OVCAR-8 cells; experiment: Drug-siRNA combination screen: 346-compound anticancer library at 100 nM, CCK-8 viability; conditions: OVCAR-8; 12 tested HDACi
ENDPOINT_NAME: number of tested HDACi highly synergistic with the gene knockdown

Answered cases to consult:
• USP40: siRNA knocking down USP40; sense GGAAACUAGCUGUUAUACAtt (SEQ ID NO 35) (sense GGAAACUAGCUGUUAUACANN; antisense UGUAUAACAGCUAGUUUCCNN; listed as RNA, chemistry not given here) = at least six
• S100A11: siRNA knocking down S100A11; sense GAACUAGCUGCCUUCACAAtt (SEQ ID NO 27) (sense GAACUAGCUGCCUUCACAANN; antisense UUGUGAAGGCAGCUAGUUCNN; chemistry not given here) = 10 of 12
• SLC7A11: siRNA knocking down SLC7A11; sense GGCUGAUUUAUCUUCGAUAtt (SEQ ID NO 31) (sense GGCUGAUUUAUCUUCGAUANN; antisense UAUCGAAGAUAAAUCAGCCNN; listed as RNA, chemistry not given here) = at least six
• KLHL5: siRNA knocking down KLHL5; sense CAGGCCGCCUUGAAUUAAAtt (SEQ ID NO 23) (sense CAGGCCGCCUUGAAUUAAANN; antisense UUUAAUUCAAGGCGGCCUGNN; listed as RNA, chemistry not given here) = at least six

API: the following record is the query input.
Task item: Read the entry AXL: siRNA knocking down AXL; sense CAGCGAGAUUUAUGACUAUtt (SEQ ID NO 15) (sense CAGCGAGAUUUAUGACUAUNN; antisense AUAGUCAUAAAUCUCGCUGNN; listed as RNA, chemistry not given here) and write its reported number of tested HDACi highly synergistic with the gene knockdown.
Reply: at least six
